Kindly state IC50 at 24 h for each of the entries shown.
Assay: in vitro
Conditions: human
Use µM as the unit, but write only the number.

Ask | For the compound O=c1c(NCCCCCCNc2c3c(nc4ccccc24)CCCC3)c(NCCCCCCNc2c3c(nc4ccccc24)CCCC3)c1=O , give its reported IC50 at 24 h.
Reply | 76

Ask | Indicate its recorded IC50 at 24 h; the compound in question is COc1ccc2nc3c(c(NCCCCCCCNc4c(NCCCCCCCNc5c6c(nc7ccc(OC)cc57)CCCC6)c(=O)c4=O)c2c1)CCCC3
Reply | 9

Ask | Given COc1ccc2c3c1O[C@H]1C[C@@H](O)C=C[C@@]31CCN(C)C2 [Galantamine, galantamine, reference compound] , respond with its IC50 at 24 h.
Reply | 4200

Ask | Determine from records and report IC50 at 24 h for Nc1c2c(nc3cc(Cl)ccc13)CCCC2 [Compound 6-Cl-THA, 6-chlorotacrine, reference compound]
Reply | 43
